# credit: ChEMBL document CHEMBL3885861

Form field: Eos (one value per entry).
- Organism: Rattus norvegicus
- Assay name: Open TG-GATES - Regimen: Single
- Assay type: toxicity, organism-based, Sprague-Dawley
- Parameters: regimen Single, gender Male, age 6 weeks
- Recorded conditions: in vivo, po, 0 mg/kg, 9 h, tissue Blood, route gavage, dose level Control
Readout label: Eos (%)

{"Compound": "CCN(CC)N=O [N-NITROSODIETHYLAMINE]", "Readout label": "Eos", "Value observed": 1.2}
{"Compound": "CC[C@@H](CO)NCCN[C@@H](CC)CO [ETHAMBUTOL]", "Readout label": "Eos", "Value observed": 0.6}
{"Compound": "CC(=O)N1CCN(c2ccc(OCC3COC(Cn4ccnc4)(c4ccc(Cl)cc4Cl)O3)cc2)CC1 (configuration not stated) [KETOCONAZOLE]", "Readout label": "Eos", "Value observed": 1.2}
{"Compound": "O=C(O)COc1nn(Cc2ccccc2)c2ccccc12 [BENDAZAC]", "Readout label": "Eos", "Value observed": 1.2}
{"Compound": "CC(CCc1ccccc1)NCC(O)c1ccc(O)c(C(N)=O)c1 (configuration not stated) [LABETALOL]", "Readout label": "Eos", "Value observed": 0.8}
{"Compound": "CC(C)Cc1ccc(C(C)C(=O)O)cc1 (configuration not stated) [IBUPROFEN]", "Readout label": "Eos", "Value observed": 0.6}
{"Compound": "CC(=O)Nc1ccc2c(c1)Cc1ccccc1-2 [2-ACETYLAMINOFLUORENE]", "Readout label": "Eos", "Value observed": 0.8}

###

Ret values for the compounds below.
- Species: Rattus norvegicus
- Assay name: Open TG-GATES - Regimen: Daily Repeat
- Type: toxicity, organism-based, Sprague-Dawley
- Set-up: regimen Daily Repeat, gender Male, age 6 weeks
- Recorded conditions: in vivo, po, 0 mg/kg, […], tissue Blood, route gavage, dose level Control, time 28 day

{"Compound": "CC[C@@H](CO)NCCN[C@@H](CC)CO", "Ret": "3.1%"}
{"Compound": "CC(N)=O [ACETAMIDE]", "Ret": "4.1%"}
{"Compound": "CC(=O)Nc1ccc2c(c1)Cc1ccccc1-2", "Ret": "2.6%"}
{"Compound": "O=C(O)COc1nn(Cc2ccccc2)c2ccccc12", "Ret": "3.5%"}
{"Compound": "CC(=O)N1CCN(c2ccc(OCC3COC(Cn4ccnc4)(c4ccc(Cl)cc4Cl)O3)cc2)CC1 (stereo not drawn)", "Ret": "2.5%"}
{"Compound": "CC(C)Cc1ccc(C(C)C(=O)O)cc1 (stereo not drawn)", "Ret": "2.7%"}
{"Compound": "CC(CCc1ccccc1)NCC(O)c1ccc(O)c(C(N)=O)c1 (stereo not drawn)", "Ret": "2.5%"}
{"Compound": "CCN(CC)N=O", "Ret": "2.6%"}

###

- Organism: Rattus norvegicus
- Assay name: Open TG-GATES - Regimen: Daily Repeat
- Format: toxicity, organism-based, Sprague-Dawley
- Set-up: regimen Daily Repeat, gender Male, age 6 weeks
- Recorded conditions: in vivo, po, 0 mg/kg, […], tissue Plasma, route gavage, dose level Control, time 28 day
Classification field: enter class 1 for DBIL values not below 0.01 mg/dL, class 0 for values below it.

{"Compound": "CC(=O)Nc1ccc2c(c1)Cc1ccccc1-2", "Group": "class 1"}
{"Compound": "CC(N)=O [ACETAMIDE]", "Group": "class 0"}
{"Compound": "CC[C@@H](CO)NCCN[C@@H](CC)CO", "Group": "class 0"}
{"Compound": "CC(=O)N1CCN(c2ccc(OCC3COC(Cn4ccnc4)(c4ccc(Cl)cc4Cl)O3)cc2)CC1 (stereo not drawn)", "Group": "class 0"}
{"Compound": "CC(C)Cc1ccc(C(C)C(=O)O)cc1 (stereo not drawn)", "Group": "class 0"}
{"Compound": "CCN(CC)N=O", "Group": "class 1"}
{"Compound": "CC(CCc1ccccc1)NCC(O)c1ccc(O)c(C(N)=O)c1 (stereo not drawn)", "Group": "class 1"}
